target: bdSUMO Mut11-MBP fusion protein
measured.attribute: cleavage of the SUMO fusion protein (% cleavage)
Just the number in % cleavage, nothing appended.

Dear colleague, I am looking for the recorded cleavage of the SUMO fusion protein of the following protein: bdSENP1^MutK (protein) PFVPLTDEDEDNVRHALGGRKVSETLSVHEASQIVITREILQCLNDKEWLNDEVINLYLELLKERELREPNKFLKCHFFNTFFYKKLINGGYDYKSVRVWTTGRKLGYNLIDCDKIFVPIHKDVHWCLAVINIKEKKFQYLDSLGYMDMKALRILAKYLVDEVKDKSGKQIDVHAWKQEGVQNLPLQENGWDCGMFMLKYIDFYSRDMELVFGQKHMSYFRRRTAKEILDLKAG
100
